biological target: UniProt:P31213; assay: Inhibition of human prostatic 5α-reductase (prostatic microsomes, [3H]testosterone); conditions: IC50 5α-reductase, Table 2
Sequence (P31213 whole entry): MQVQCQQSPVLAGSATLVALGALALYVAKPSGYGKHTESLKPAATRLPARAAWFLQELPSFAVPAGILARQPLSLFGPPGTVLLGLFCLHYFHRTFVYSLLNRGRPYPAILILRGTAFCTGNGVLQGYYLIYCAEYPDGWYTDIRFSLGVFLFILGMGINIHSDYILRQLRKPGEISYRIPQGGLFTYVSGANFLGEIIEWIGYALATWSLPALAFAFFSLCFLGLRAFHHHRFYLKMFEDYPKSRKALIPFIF
The entries below come with measured IC50 values attached.
Give just the numeric value; nM need not be written.

Some solved entries appear below for comparison.
compound | IC50 (nM)
CC(=NO)C1=CC[C@H]2[C@@H]3CCC4=CC(=O)CC[C@]4(C)[C@H]3CC[C@]12C [Compound L-2, 16-dehydroprogesterone-20-oxime] | 52
C[C@H](O)[C@H]1CC[C@H]2[C@@H]3CCC4=CC(=O)CC[C@]4(C)[C@H]3CC[C@]12C | 13
CCN(CC)C(=O)[C@H]1CC[C@H]2[C@@H]3CC[C@H]4N(C)C(=O)CC[C@]4(C)[C@H]3CC[C@]12C [Compound 4MA, reference compound] | 10
C[C@]12CCC(=O)C=C1CC[C@@H]1[C@@H]2CC[C@]2(C)C(c3c[nH]cn3)=CC[C@@H]12 | 522
C[C@@H](O)[C@H]1CC[C@H]2[C@@H]3CCC4=CC(=O)CC[C@]4(C)[C@H]3CC[C@]12C | 90

Query compound follows.
Query: Test system UniProt:P31213; read-out IC50; what value for C[C@@H](O)C1=CC[C@H]2[C@@H]3CCC4=CC(=O)CC[C@]4(C)[C@H]3CC[C@]12C [Compound L-10, 20β-hydroxy-pregna-4,16-dien-3-one] ?
Result: 21
